Numbers sourced from patent US20210040155A1.

cAMP Assay (EC-50) values, listed per item
- target.system: melanocortin-1 receptor (human, UniProt Q01726 1-317)
- Sequence (Q01726 whole entry): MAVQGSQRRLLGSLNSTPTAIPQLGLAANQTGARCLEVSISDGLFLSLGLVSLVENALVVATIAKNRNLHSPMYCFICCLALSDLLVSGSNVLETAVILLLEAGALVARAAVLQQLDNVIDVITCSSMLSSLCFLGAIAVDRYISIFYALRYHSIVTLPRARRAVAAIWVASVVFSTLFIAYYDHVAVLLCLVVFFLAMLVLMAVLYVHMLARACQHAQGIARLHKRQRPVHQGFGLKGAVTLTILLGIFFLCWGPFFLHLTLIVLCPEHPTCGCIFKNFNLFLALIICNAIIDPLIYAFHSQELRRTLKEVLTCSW
- assay.text: cell-based or functional assay
Bridge positions count the residues as written; N and C are the ends. Square brackets hold non-standard residues; d marks the D form.
Number in nM, nothing else.

[
  {
    "binder": "Ac-RC[dA]N[dF]RWC-NH2 (disulfide 2-8; SMILES CC(=O)N[C@@H](CCCNC(=N)N)C(=O)N[C@H]1CSSC[C@@H](C(N)=O)NC(=O)[C@H](Cc2c[nH]c3ccccc23)NC(=O)[C@H](CCCNC(=N)N)NC(=O)[C@@H](Cc2ccccc2)NC(=O)[C@H](CC(N)=O)NC(=O)[C@@H](C)NC1=O) [Ac-Arg-cyclo[Cys-D-Ala-Asn-D-Phe-Arg-Trp-Cys]-NH2]",
    "quantity.kind": "cAMP Assay (EC-50)",
    "units": "nM",
    "test.value": 248
  },
  {
    "binder": "Ac-RC[dA]Q[dF]RWC-NH2 (disulfide 2-8; SMILES CC(=O)N[C@@H](CCCNC(=N)N)C(=O)N[C@H]1CSSC[C@@H](C(N)=O)NC(=O)[C@H](Cc2c[nH]c3ccccc23)NC(=O)[C@H](CCCNC(=N)N)NC(=O)[C@@H](Cc2ccccc2)NC(=O)[C@H](CCC(N)=O)NC(=O)[C@@H](C)NC1=O) [Ac-Arg-cyclo[Cys-D-Ala-Gln-D-Phe-Arg-Trp-Cys]-NH2]",
    "quantity.kind": "cAMP Assay (EC-50)",
    "units": "nM",
    "test.value": 71
  }
]

Note: attention shifts to another entry.
The binder listed as Ac-RC[dL]H[dF]RWC-NH2 (disulfide 2-8) [Ac-Arg-cyclo[Cys-D-Leu-His-D-Phe-Arg-Trp-Cys]-NH2] has a reported cAMP Assay (EC-50) of 0.47
